Reported MIC values are given for each entry in this list.
System: Enterococcus faecium
protocolDetails: Antibacterial activity against vancomycin resistant Enterococcus faecium ATCC 700221 assessed as inhibition of bacterial growth incubated for 48 hrs by CLSI-based broth microdilution assay
Assay type: functional
Square brackets hold non-standard residues; d marks the D form. Peptide text beside a SMILES is read from it. 2Nal = N[C@@H](Cc1ccc2ccccc2c1)C(=O)O
measuredAttribute: MIC (µM)

INSERT INTO assay_data (molecule, measuredattribute, readoutvalue) VALUES
  ('CC(C)C[C@H](NC(=O)[C@H](CC(C)C)NC(=O)[C@@H](NC(=O)[C@H](CCCCN)NC(=O)[C@H](Cc1ccc2ccccc2c1)NC(=O)[C@H](CCCNC(=N)N)NC(=O)[C@H](CCCCN)NC(=O)[C@H](CC(C)C)NC(=O)[C@H](CC(C)C)NC(=O)CN)[C@@H](C)O)C(N)=O (H-GLLKR[2Nal]KTLL-NH2)', 'MIC', 28.4),
  ('CC[C@H](C)[C@H](NC(=O)[C@H](Cc1c[nH]c2ccccc12)NC(=O)[C@H](CCCCN)NC(=O)[C@H](CC(C)C)NC(=O)[C@H](CC(C)C)NC(=O)CN)C(=O)N[C@@H](CCCCN)C(=O)N[C@@H](CCCCN)C(=O)N[C@@H](CC(C)C)C(=O)N[C@@H](CC(C)C)C(N)=O (H-GLLKWIKKLL-NH2)', 'MIC', 3.2);

----------
Reported HC50 at 1 h values are given for each entry in this list.
protocolDetails: Hemolytic activity in human erythrocyte incubated for 1 hr
Format: toxicity, cell-based
particulars: erythrocytes
Peptide text beside a SMILES is read from it. * marks the point of attachment. Heptadecanoyl = CCCCCCCCCCCCCCCCC(=O)*
measuredAttribute: HC50 at 1 h (µM)

INSERT INTO assay_data (compound, unitofmeasure, readoutvalue) VALUES
  ('CCCCCCCCCCCCCCCCC(=O)NCC(=O)N[C@@H](CC(C)C)C(=O)N[C@@H](CC(C)C)C(=O)N[C@@H](CCCCN)C(=O)N[C@@H](CCCNC(=N)N)C(=O)N[C@H](C(N)=O)[C@@H](C)CC (Heptadecanoyl-GLLKRI-NH2)', 'µM', 8.01),
  ('CCCCCCCCCCCCCCCCC(=O)NCC(=O)N[C@@H](CC(C)C)C(=O)N[C@@H](CC(C)C)C(=O)N[C@@H](CCCCN)C(=O)N[C@@H](CCCNC(=N)N)C(=O)N[C@H](C(=O)N[C@@H](CCCCN)C(=O)N[C@H](C(=O)N[C@@H](CC(C)C)C(=O)N[C@@H](CC(C)C)C(=O)O)[C@@H](C)O)[C@@H](C)CC (Heptadecanoyl-GLLKRIKTLL-OH)', 'µM', 14.8),
  ('CCCCCCCCCCCCCCCCC(=O)NCC(=O)N[C@@H](CC(C)C)C(=O)N[C@@H](CC(C)C)C(=O)N[C@@H](CCCCN)C(=O)N[C@@H](CCCNC(=N)N)C(=O)N[C@H](C(=O)N[C@@H](CCCCN)C(N)=O)[C@@H](C)CC (Heptadecanoyl-GLLKRIK-NH2)', 'µM', 35.4),
  ('CCCCCCCCCCCCCCCCC(=O)NCC(=O)N[C@@H](CC(C)C)C(=O)N[C@@H](CC(C)C)C(=O)N[C@@H](CCCCN)C(=O)N[C@@H](CCCNC(=N)N)C(N)=O (Heptadecanoyl-GLLKR-NH2)', 'µM', 80.2),
  ('CCCCCCCCCCCCCCCCC(=O)NCC(=O)N[C@@H](CC(C)C)C(=O)N[C@@H](CC(C)C)C(=O)N[C@@H](CCCCN)C(=O)N[C@@H](CCCNC(=N)N)C(=O)N[C@H](C(=O)N[C@@H](CCCCN)C(=O)N[C@H](C(N)=O)[C@@H](C)O)[C@@H](C)CC (Heptadecanoyl-GLLKRIKT-NH2)', 'µM', 29);

----------
Reported HC10 values are given for each entry in this list.
Tested on: Erythrocyte
protocolDetails: Hemolytic activity in mouse Red blood cells incubated for 1 hr by microplate reader assay
Type: toxicity, cell-based
particulars: erythrocyte, 1 h
measuredAttribute: HC10

INSERT INTO assay_data (structurestring, measuredon, readoutvalue) VALUES
  ('CC[C@H](C)[C@H](NC(=O)[C@H](CCCNC(=N)N)NC(=O)[C@H](CCCCN)NC(=O)[C@@H](CC(C)C)NC(=O)[C@H](CC(C)C)NC(=O)CN)C(=O)N[C@@H](CCCCN)C(=O)N[C@H](C(=O)N[C@H](CC(C)C)C(=O)N[C@@H](CC(C)C)C(N)=O)[C@@H](C)O', 'Erythrocyte', '> 300 µM'),
  ('CC(C)C[C@@H](NC(=O)[C@@H](CC(C)C)NC(=O)[C@@H](CCCCN)NC(=O)[C@@H](CCCCN)NC(=O)[C@@H](Cc1c[nH]c2ccccc12)NC(=O)[C@@H](CCCNC(=N)N)NC(=O)[C@@H](CCCCN)NC(=O)[C@@H](CC(C)C)NC(=O)[C@@H](CC(C)C)NC(=O)[C@H](N)Cc1c[nH]c2ccccc12)C(N)=O', 'Erythrocyte', '> 200 µM'),
  ('CC[C@H](C)[C@H](NC(=O)[C@H](CCCNC(=N)N)NC(=O)[C@@H](CCCCN)NC(=O)[C@H](CC(C)C)NC(=O)[C@H](CC(C)C)NC(=O)CN)C(=O)N[C@H](CCCCN)C(=O)N[C@H](C(=O)N[C@@H](CC(C)C)C(=O)N[C@@H](CC(C)C)C(N)=O)[C@@H](C)O', 'Erythrocyte', '> 300 µM'),
  ('CC[C@H](C)[C@H](NC(=O)[C@H](CCCNC(=N)N)NC(=O)[C@H](CCCCN)NC(=O)[C@H](CC(C)C)NC(=O)[C@@H](CC(C)C)NC(=O)CN)C(=O)N[C@@H](CCCCN)C(=O)N[C@H](C(=O)N[C@@H](CC(C)C)C(=O)N[C@H](CC(C)C)C(N)=O)[C@@H](C)O', 'Erythrocyte', '> 300 µM'),
  ('CC[C@H](C)[C@H](NC(=O)[C@H](CCCNC(=N)N)NC(=O)[C@@H](CCCCN)NC(=O)[C@H](CC(C)C)NC(=O)[C@H](CC(C)C)NC(=O)CN)C(=O)N[C@@H](CCCCN)C(=O)N[C@@H](C(=O)N[C@@H](CC(C)C)C(=O)N[C@@H](CC(C)C)C(N)=O)[C@H](C)O', 'Erythrocyte', '> 300 µM');

----------
Reported MIC values are given for each entry in this list.
Test system: Escherichia coli
protocolDetails: Antibacterial activity against Escherichia coli DH5a assessed as bacterial growth inhibition
Format: functional
Peptide text beside a SMILES is read from it. * marks the point of attachment. Undecanoyl = CCCCCCCCCCC(=O)*; Nonanoyl = CCCCCCCCC(=O)*
measuredAttribute: MIC (µM)

INSERT INTO measurements (compound, measuredattribute, qualifieroperator, readoutvalue) VALUES
  ('CCCCCCCCCCC(=O)NCC(=O)N[C@@H](CC(C)C)C(=O)N[C@@H](CC(C)C)C(=O)N[C@@H](CCCCN)C(=O)N[C@H](C(=O)N[C@H](C(=O)N[C@@H](CCCCN)C(=O)N[C@@H](CCCNC(=N)N)C(=O)N[C@@H](CC(C)C)C(=O)N[C@@H](CC(C)C)C(N)=O)[C@@H](C)CC)[C@@H](C)CC (Undecanoyl-GLLKIIKRLL-NH2)', 'MIC', '>', 167),
  ('CCCCCCCCC(=O)NCC(=O)N[C@@H](CC(C)C)C(=O)N[C@@H](CCCCN)C(=O)N[C@@H](CCCCN)C(=O)N[C@H](C(=O)N[C@H](C(=O)N[C@@H](CCCCN)C(=O)N[C@@H](CCCCN)C(=O)N[C@@H](CC(C)C)C(=O)N[C@@H](CC(C)C)C(N)=O)[C@@H](C)CC)[C@@H](C)CC (Nonanoyl-GLKKIIKKLL-NH2)', 'MIC', '=', 76.6),
  ('CCCCCCCCCCC(=O)NCC(=O)N[C@@H](CC(C)C)C(=O)N[C@@H](CCCCN)C(=O)N[C@@H](CCCCN)C(=O)N[C@H](C(=O)N[C@H](C(=O)N[C@@H](CCCCN)C(=O)N[C@@H](CCCCN)C(=O)N[C@@H](CC(C)C)C(=O)N[C@@H](CC(C)C)C(N)=O)[C@@H](C)CC)[C@@H](C)CC (Undecanoyl-GLKKIIKKLL-NH2)', 'MIC', '=', 25);

----------
Reported HC50 values are given for each entry in this list.
protocolDetails: Hemolytic activity in human RBC
Type: toxicity, cell-based, Erythrocyte
particulars: red blood cells
Square brackets hold non-standard residues; d marks the D form. Peptide text beside a SMILES is read from it. 2Nal = N[C@@H](Cc1ccc2ccccc2c1)C(=O)O; Cha = N[C@@H](CC1CCCCC1)C(=O)O
measuredAttribute: HC50 (µM)

INSERT INTO results (compound, qualifieroperator, readoutvalue) VALUES
  ('CC[C@H](C)[C@H](NC(=O)[C@H](CCCCN)NC(=O)[C@H](CC(C)C)NC(=O)[C@H](CC(C)C)NC(=O)CN)C(=O)N[C@H](C(=O)N[C@@H](CCCCN)C(=O)N[C@H](C(=O)N[C@@H](CC(C)C)C(=O)N[C@@H](CC(C)C)C(N)=O)[C@@H](C)O)[C@@H](C)CC (H-GLLKIIKTLL-NH2)', '=', 26.1),
  ('CC[C@H](C)[C@H](NC(=O)[C@H](CC(C)C)NC(=O)[C@H](CCCCN)NC(=O)[C@H](CC(C)C)NC(=O)[C@H](CC(C)C)NC(=O)CN)C(=O)N[C@@H](CCCCN)C(=O)N[C@H](C(=O)N[C@@H](CC(C)C)C(=O)N[C@@H](CC(C)C)C(N)=O)[C@@H](C)O (H-GLLKLIKTLL-NH2)', '=', 11.7),
  ('CC(C)C[C@H](NC(=O)[C@H](CC(C)C)NC(=O)[C@H](CCCCN)NC(=O)[C@H](CCCCN)NC(=O)[C@H](Cc1c[nH]c2ccccc12)NC(=O)[C@H](CCCNC(=N)N)NC(=O)[C@H](CCCCN)NC(=O)[C@H](CC(C)C)NC(=O)[C@H](CC(C)C)NC(=O)[C@@H](N)Cc1c[nH]c2ccccc12)C(N)=O', '>', 200),
  ('CC(C)C[C@H](NC(=O)[C@H](CC(C)C)NC(=O)[C@@H](NC(=O)[C@H](CCCCN)NC(=O)[C@H](Cc1ccc2ccccc2c1)NC(=O)[C@H](CCCCN)NC(=O)[C@H](CCCCN)NC(=O)[C@H](CC(C)C)NC(=O)[C@H](CC1CCCCC1)NC(=O)CN)[C@@H](C)O)C(N)=O (H-G[Cha]LKK[2Nal]KTLL-NH2)', '=', 15.3);

// data source = ChEMBL document CHEMBL5608163
